Test system: T-47D breast
Assay: NCI-60 one-dose screen, 48 h
Conditions: 10 µM unless noted
This is part of a sample that, as a whole, favours compounds with a hit. Of some 83,000 tested, about 20% had one in any assay. The source made the active and inactive calls. Rule for the calls: active = growth percent below 10; inactive = the rest.
Permitted responses: active, inactive

QUERY: Outcome? CCOC(=S)S[C@H]1C[C@@H]2[C@H](CC[C@]3(C)C(=O)CC[C@@H]23)[C@@]2(C)CCC(=O)C=C12
RESULT: inactive

QUERY: Outcome? C[C@@]12CC=C3c4nc(Nc5cccc(O)c5)sc4CC[C@]3(C)[C@H]1CC[C@]1(C)C(=O)CC[C@@H]21
RESULT: active

QUERY: Outcome? C/C1=C/C(=O)O[C@@H]2C[C@@H](CC[C@H](C)/C=C\C=C\CC1)O[C@@](O)([C@@H]1CSC(=O)N1CO)C2
RESULT: inactive

From here, focus on the item given below.
QUERY: Outcome? CC(=O)O[C@H]1CC[C@]2(C)[C@H]3CC[C@]4(C)[C@@H](OC(C)=O)CC[C@H]4[C@@H]3[C@@H](C)[C@]2(O)C1
RESULT: inactive

* * *

Tested on: A549/ATCC NSCLC
Test: NCI-60 one-dose screen, 48 h (100 = growth as untreated, 0 = no growth, -100 = all killed)
Settings: 10 µM unless noted
Compounds without any hit were thinned out: in the full panel of roughly 83,000, 20% have a hit.
Criterion: growth strictly under 60%. Met: true (1). Not met: false (0).

QUERY: # strict comparison: is reported growth < 60%? input = Cc1cc(N(CCCl)CCCl)ccc1/C=N\NC(=O)c1ccncc1
RESULT: false (0)

QUERY: # strict comparison: is reported growth < 60%? input = C/C(=C\c1ccn(-c2ccccc2N)n1)[C@@H]1C[C@@H]2O[C@]2(C)CCC[C@H](C)[C@H](O)[C@@H](C)C(=O)C(C)(C)[C@@H](O)CC(=O)O1
RESULT: true (1)

QUERY: # strict comparison: is reported growth < 60%? input = N#CCCNc1ccccc1
RESULT: false (0)

QUERY: # strict comparison: is reported growth < 60%? input = O=C(O)C(O)C(O)C1[O][Sb]([c]2ccc([N+](=O)[O-])cc2)[O]C1CO (stereo unspecified)
RESULT: false (0)

* * *

Tested on: SK-MEL-2 melanoma
Assay: NCI-60 one-dose screen, 48 h (100 = growth as untreated, 0 = no growth, -100 = all killed)
Conditions: 10 µM unless noted
About 83,000 compounds went through this panel and 20% of them were active in at least one assay; those are over-represented in the sample as a whole.
Criterion: growth strictly under 40%. Met: MET. Not met: NOT MET.

QUERY: # strict comparison: is reported growth < 40%? input = O=[N+]([O-])/C=C\c1ccc(Cl)c(Cl)c1
RESULT: NOT MET

QUERY: # strict comparison: is reported growth < 40%? input = COC(=O)[C@@H](C)C[C@H](Cc1ccc2ccccc2c1)NC(=O)c1csc([C@@H](C[C@H](C(C)C)N(C)C(=O)[C@@H](NC(=O)[C@H]2CCCCN2C)C(C)C)OC(C)=O)n1
RESULT: NOT MET

QUERY: # strict comparison: is reported growth < 40%? input = CC(=O)c1ccc(C(=O)NCC2CCC3(CC2)OOC2(CCCCC2)OO3)cc1
RESULT: NOT MET

QUERY: # strict comparison: is reported growth < 40%? input = COc1cc2c(=O)n(C3CCCCCCC3)c3c4cc[nH]c4ncc3c2cc1OC
RESULT: NOT MET

QUERY: # strict comparison: is reported growth < 40%? input = CC1CCCC(C[N+](C)(C)C)C1=O (centres undefined)
RESULT: NOT MET

From here, focus on the item given below.
QUERY: # strict comparison: is reported growth < 40%? input = COC(=O)[C@@H](C)C[C@H](Cc1ccccc1)NC(=O)c1csc(CC[C@H](C(C)C)N(C)C(=O)[C@@H](NC(=O)[C@H]2CCCCN2C)C(C)C)n1
RESULT: MET

* * *

Known growth of a selection of compounds
Tested on: MDA-MB-435 melanoma
Test: NCI-60 one-dose screen, 48 h (100 = growth as untreated, 0 = no growth, -100 = all killed)
Details: 10 µM unless noted
About 83,000 compounds went through this panel and 20% of them were active in at least one assay; those are over-represented in the sample as a whole.
Numeric only. Scale: %

QUERY: Item under review: COc1ccc(S(=O)(=O)N(Cc2ccc3c(c2)C=CC(C)(C)O3)c2ccccc2)cc1OC . Reported growth?
RESULT: 87.3

QUERY: Item under review: Fc1ccc(C2=CCNCC2)cc1 . Reported growth?
RESULT: 102

QUERY: Item under review: CC(C)OC(=O)[C@H](C)NP(=O)(Oc1ccccc1)C1CCCN(O)C1=O (stereo not given in full) . Reported growth?
RESULT: 96.1

QUERY: Item under review: CC[C@]12C=CCN3CC[C@]4(C(=C(C(=O)OC)C1)Nc1cc(OC)c(OC(C)=O)cc14)[C@@H]32 . Reported growth?
RESULT: 3.75

QUERY: Item under review: O=C1CC2(CC3(Cl)C(Cl)=C(Cl)C2(Cl)C3(Cl)Cl)C(=O)O1 (stereo not given) . Reported growth?
RESULT: 103

New cases:
QUERY: Item under review: COc1cc(NCCCN=C(N)N)c2ncccc2c1 . Reported growth?
RESULT: 103

QUERY: Item under review: COC(=O)[C@@H](C)C[C@H](Cc1ccccc1)NC(=O)c1csc([C@@H](C[C@H](C(C)C)N(C)C(=O)[C@@H](NC(=O)[C@H]2CCCCN2C)C(C)C)OC(C)=O)n1 . Reported growth?
RESULT: -54.7

QUERY: Item under review: C/C(CC(C)(C)N1CC1)=N\NC(=O)Nc1cccc2ccccc12 . Reported growth?
RESULT: 79.6

QUERY: Item under review: O=[N+]([O-])/C=C\c1ccc(Cl)c(Cl)c1 . Reported growth?
RESULT: -26.3

QUERY: Item under review: O=C1C=C(N2C3C4CCC(C4)C32)C(=O)C=C1c1ccccc1 (stereo not given) . Reported growth?
RESULT: 99.7

* * *

Known growth of a selection of compounds
System: SK-MEL-28 melanoma
Assay: NCI-60 one-dose screen, 48 h (100 = growth as untreated, 0 = no growth, -100 = all killed)
Conditions: 10 µM unless noted
About 83,000 compounds went through this panel and 20% of them were active in at least one assay; those are over-represented in the sample as a whole. Activity calls are given as the source filed them. Rule for the calls: active = growth percent below 10; inactive = the rest.

QUERY: Item under review: C#Cc1ccc2c(c1)C(c1ccccc1)=NCC(=O)N2C . Reported growth?
RESULT: 59.1% (inactive)

QUERY: Item under review: COc1ccc(/C=C\c2cc(OC)c(OC)c(OC)c2)cc1NS(=O)(=O)c1ccc(Cl)cc1 . Reported growth?
RESULT: 53% (inactive)

QUERY: Item under review: CC(=O)O[C@H]1C(=O)[C@@]2(C)[C@H]([C@H](OC(=O)c3ccccc3)[C@]3(O)C[C@H](OC(=O)[C@H](OC(=O)OCC4COC(C)(C)O4)[C@@H](NC(=O)c4ccccc4)c4ccccc4)C(C)=C1C3(C)C)[C@]1(OC(C)=O)CO[C@@H]1C[C@@H]2O (some centres undefined) . Reported growth?
RESULT: 43.8% (inactive)

API: the following record is the query input.
QUERY: Item under review: C=C1C(=O)O[C@H]2[C@H]1CC/C(COC(=O)C(=O)c1cn(Cc3ccccc3)c3ccccc13)=C\CC[C@@]1(C)O[C@@H]21 . Reported growth?
RESULT: -47.1% (active)

* * *

System: SNB-19 CNS
Assay: NCI-60 one-dose screen, 48 h
Settings: 10 µM unless noted
Compounds without any hit were thinned out: in the full panel of roughly 83,000, 20% have a hit. Active and inactive are the calls of the source. How the source made its calls: active means growth percent below 10; inactive means the rest.
Permitted responses: active, inactive

QUERY: Outcome? CN1CC(CNC(=O)OCc2ccccc2)CC2c3cccc4c3c(cn4C)CC21 (configuration not stated)
RESULT: inactive

QUERY: Outcome? COC(=O)[C@@]1(C)CC[C@]2(C)CC[C@]3(C)C4=CC=C5C(=CC(=O)C(O)=C5C)[C@]4(C)CC[C@@]3(C)[C@@H]2C1
RESULT: active

New cases:
QUERY: Outcome? Nc1nc([Se])c2ncn(C3OC(CO)C(O)C3O)c2n1 (configuration not stated)
RESULT: inactive

QUERY: Outcome? COC(=O)[C@H](C[C@H](Cc1ccccc1)NC(=O)c1csc([C@@H](C[C@H](C(C)C)N(C)C(=O)[C@@H](NC(=O)[C@H]2CCCCN2C)C(C)C)OC(C)=O)n1)NC(=O)OCc1ccccc1
RESULT: inactive

QUERY: Outcome? CNC12C3C4C1C1C2C3C41C(=O)N[C@H](C(=O)N(C)[C@H](C[C@@H](OC(C)=O)c1nc(C(=O)N[C@@H](Cc2ccccc2)C[C@H](C)C(=O)OC)cs1)C(C)C)C1CC1 (some centres not stated)
RESULT: inactive

QUERY: Outcome? CC(=O)O[C@H](C[C@H](C(C)C)N(C)C(=O)[C@@H](NC(=O)[C@H]1CCCCN1C)C(C)C)c1nc(C(=O)N[C@@H](Cc2ccccc2)C[C@H](C)C(=O)O)c(C)s1
RESULT: inactive

QUERY: Outcome? CC[C@H](NC(=O)[C@H]1CCCCN1C)C(=O)N(C)[C@H](C[C@@H](OC(C)=O)c1nc(C(=O)N[C@@H](Cc2ccccc2)C[C@H](C)C(=O)O)cs1)C(C)C
RESULT: inactive

QUERY: Outcome? O=C1CN=C(c2ccc(Cl)cc2)c2sccc2N1
RESULT: inactive

QUERY: Outcome? CCN(CC)CCOC(=O)C(OC(C)C)(c1ccccc1)c1ccccc1
RESULT: inactive

QUERY: Outcome? ClC1=C(Cl)C(Cl)(C2(Cl)C(Cl)=C(Cl)C(Cl)=C2Cl)C(Cl)=C1Cl
RESULT: inactive

QUERY: Outcome? COc1ccc(C(O)(C(=O)O)c2ccc(OC)cc2)cc1
RESULT: inactive

QUERY: Outcome? Clc1cccc(N2COOC3(OOC2)C2CC4CC(C2)CC3C4)c1
RESULT: inactive

QUERY: Outcome? Fc1ccc(N2COOC3(OOC2)C2CC4CC(C2)CC3C4)cc1
RESULT: inactive

QUERY: Outcome? C[C@]12CCc3sc(-c4cccc(F)c4)nc3C1=CC[C@@H]1[C@@H]2CC[C@]2(C)C(=O)CC[C@@H]12
RESULT: inactive

QUERY: Outcome? CC(CC1CCCCC1)NCc1ccccc1 (configuration not stated)
RESULT: inactive

QUERY: Outcome? O=C(O)c1c(Cl)n(Cc2ccc(O)cc2)c2ccc(O)cc12
RESULT: inactive

QUERY: Outcome? CCCCCSC1C2C(=O)C(Br)=CC13CCNc1c(O)c4c5c(c13)=[N+]2CCC=5C=N4 (configuration not stated)
RESULT: active
